target: KRas G12R (Homo sapiens, UniProt P01116, G12R); assay: biochemical;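 also: TR-FRET displacement assay of compound binding to KRas, read after one hour at room temperature, potency from a four-parameter fit of percent-of-control values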
Sequence (P01116 1-169 isoform P01116-2 G12R): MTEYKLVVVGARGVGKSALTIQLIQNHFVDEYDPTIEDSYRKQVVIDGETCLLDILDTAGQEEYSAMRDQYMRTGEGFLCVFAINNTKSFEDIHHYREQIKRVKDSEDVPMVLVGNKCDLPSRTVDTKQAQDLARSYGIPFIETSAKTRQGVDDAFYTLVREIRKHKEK
pIC50: −log10 of the molar value.
Note to self: values exactly at 6 are label 1. So pIC50 at or above 6 is label 1, below is label 0.

// below: answered compounds
compound: Fc1c(-c2cccc3cccc(F)c23)ncc2c(Nc3ccc4[nH]ncc4c3)nc(OCC34CCCN3CCC4)nc12
subject-of-test: KRas G12R (Homo sapiens, UniProt P01116, G12R)
class-label: label 0
//
compound: O=C1CC2(CCCN(c3nc(OCC45CCCN4CCC5)nc4c(F)c(-c5cccc6cccc(C(F)F)c56)ncc34)C2)N1 (centres unmarked)
subject-of-test: KRas G12R (Homo sapiens, UniProt P01116, G12R)
class-label: label 0
//
compound: Fc1c(-c2cccc3cccc(F)c23)ncc2c(NCCCn3ccnn3)nc(OCC34CCCN3CCC4)nc12
subject-of-test: KRas G12R (Homo sapiens, UniProt P01116, G12R)
class-label: label 0

Query block: Tell me whether pIC50 is at least 6 here: `CCc1c(F)ccc2cc(O)cc(-c3ncc4c(NCCN5CCNC5=O)nc(OC[C@@]56CCCN5C[C@H](F)C6)nc4c3F)c12`
Result block: label 1

Query block: Can you handle `C#Cc1c(F)ccc2cc(O)cc(-c3ncc4c(N5C[C@@H]6C[C@H](C5)[C@H](O)C6)nc(OC[C@@]56CCCN5C[C@H](F)C6)nc4c3F)c12` next?
Result block: label 1

Query block: Also check CCc1cccc2cccc(-c3ncc4c(N5CCCC6(CC(=O)N6)C5)nc(OCC56CCCN5CCC6)nc4c3F)c12 (centres unmarked)
Result block: label 1

The reported numbers originate from patent US12398154B2.
